Readings of pEC50 for the listed compounds
# System: BV-2 (mouse microglia) cells
# ASSAY DETAILS: progranulin secretion from BV-2 cells, mouse progranulin ELISA of conditioned media
# Type: cell-based
# CONDITION CONTEXT: Mus musculus, BV-2, 16 h, BV-2 cells, 16 hours incubation, 8-point curves starting at 10 μM; assay run v2 (same protocol, different assay); read-out: PRGN v2 (EC50, progranulin secretion)
pEC50: −log10 of the molar value.

{"columns": ["SMILES RECORD", "pEC50"],
 "data": [
  ["O=C(C[C@@H]1CN2CCC1CC2)N1CCc2ccccc2[C@H]1c1ccc(OC2CC2)cc1", "< 5.00"],
  ["CS(=O)(=O)N1CC([C@H]2c3ccccc3CCN2C(=O)N[C@@H]2CN3CCC2CC3)C1", "< 5.00"],
  ["O=C1CCCN1c1ccc([C@@H]2c3ccccc3CCN2C(=O)N[C@@H]2CN3CCC2CC3)cc1", "< 5.00"],
  ["CN(C(=O)N1CCc2ccccc2[C@@H]1c1ccc(F)cc1)[C@H]1CN2CCC1CC2", "< 5.00"],
  ["O=C(N[C@@H]1CN2CCC1CC2)N1CCc2ccccc2[C@@H]1c1cccc(F)c1", 5.84],
  ["O=C(N[C@@H]1CN2CCC1CC2)N1CCc2cccnc2[C@H]1c1ccc(Cl)cc1", "< 5.00"],
  ["CS(=O)(=O)N1CC([C@@H]2c3ccccc3CCN2C(=O)N[C@@H]2CN3CCC2CC3)C1", "< 5.00"],
  ["COc1ccc([C@H]2c3ccccc3CCN2C(=O)C[C@@H]2CN3CCC2CC3)cc1F", 5.68]
]}

* * *

# Test system: BV-2 (mouse microglia) cells
# ASSAY DETAILS: progranulin secretion from BV-2 cells, mouse progranulin ELISA of conditioned media
# Format: cell-based
# CONDITION CONTEXT: Mus musculus, BV-2, 16 h, BV-2 cells, 16 hours incubation, 8-point curves starting at 10 μM; assay run v2 (same protocol, different assay); read-out: PRGN v2 (EC50, progranulin secretion)
Readings of EC50 for the listed compounds

{"columns": ["SMILES RECORD", "EC50"],
 "data": [
  ["O=C(C[C@@H]1CN2CCC1CC2)N1CCc2ccccc2[C@@H]1c1cccc(F)c1", "> 6.1 µM"],
  ["O=C(N[C@@H]1CN2CCC1CC2)N1CCc2ccccc2[C@@H]1c1ccn2ccnc2c1", "> 10 µM"],
  ["O=S(=O)(C[C@@H]1CN2CCC1CC2)N1CCc2ccccc2[C@@H]1c1ccccc1", "> 10 µM"],
  ["O=C1CCCN1c1ccc([C@H]2c3ccccc3CCN2C(=O)N[C@@H]2CN3CCC2CC3)cc1", "> 10 µM"]
]}

* * *

# Tested on: BV-2 (mouse microglia) cells
# ASSAY DETAILS: progranulin secretion from BV-2 cells, mouse progranulin ELISA of conditioned media
# Assay type: cell-based
# CONDITION CONTEXT: Mus musculus; BV-2 cells, 16 hours incubation, 8-point curves starting at 10 μM; assay run v2 (same protocol, different assay); read-out: PRGN v2 (EC50, progranulin secretion)

{"columns": ["MOLECULE", "EC50"],
 "data": [
  ["Cc1nc2cc([C@H]3c4ccccc4CCN3C(=O)O[C@@H]3CN4CCC3CC4)ccc2s1", "> 10 µM"],
  ["Cc1nc2ccc([C@H]3c4ccccc4CCN3C(=O)O[C@@H]3CN4CCC3CC4)cc2o1", "> 10 µM"],
  ["O=C(O[C@@H]1CN2CCC1CC2)N1CCc2ccccc2[C@@H]1c1ccc(OC2CC2)cc1", "> 10 µM"],
  ["O=C1CCCN1c1ccc([C@H]2c3ccccc3CCN2C(=O)O[C@@H]2CN3CCC2CC3)cc1", "> 10 µM"],
  ["CC1(C)C(OC(=O)N2CCc3ccccc3[C@H]2c2cccc(F)c2F)C2CCN1CC2 (some centres unmarked)", "0.43 µM"]
]}

* * *

Readings of pEC50 for the listed compounds
# System: BV-2 (mouse microglia) cells
# ASSAY DETAILS: progranulin secretion from BV-2 cells, mouse progranulin ELISA of conditioned media
# Assay type: cell-based
# CONDITION CONTEXT: BV-2 cells, 16 hours incubation, 8-point curves starting at 10 μM; assay run v2 (same protocol, different assay); read-out: PRGN v2 (EC50, progranulin secretion)
pEC50: −log10 of the molar value.
QUANTITY NAME: pEC50

{"columns": ["COMPOUND", "OBSERVED VALUE"],
 "data": [
  ["O=C(O[C@@H]1CN2CCC1CC2)N1CCc2ccccc2[C@H]1c1ccc2scnc2c1", "< 5.00"],
  ["O=C1CCC([C@H]2c3ccccc3CCN2C(=O)O[C@@H]2CN3CCC2CC3)CN1 (stereo partly drawn)", "< 5.00"],
  ["O=C(N[C@@H]1CN2CCC1CC2)N1CCc2ccccc2[C@@H]1c1ccc2cccn2c1 [Compound 1108]", "< 5.00"]
]}
